# systemName: Full length SHP2 protein (Recombinant Human SHP-2) (Homo sapiens)
# Sequence (Q06124 2-593 limits assumed): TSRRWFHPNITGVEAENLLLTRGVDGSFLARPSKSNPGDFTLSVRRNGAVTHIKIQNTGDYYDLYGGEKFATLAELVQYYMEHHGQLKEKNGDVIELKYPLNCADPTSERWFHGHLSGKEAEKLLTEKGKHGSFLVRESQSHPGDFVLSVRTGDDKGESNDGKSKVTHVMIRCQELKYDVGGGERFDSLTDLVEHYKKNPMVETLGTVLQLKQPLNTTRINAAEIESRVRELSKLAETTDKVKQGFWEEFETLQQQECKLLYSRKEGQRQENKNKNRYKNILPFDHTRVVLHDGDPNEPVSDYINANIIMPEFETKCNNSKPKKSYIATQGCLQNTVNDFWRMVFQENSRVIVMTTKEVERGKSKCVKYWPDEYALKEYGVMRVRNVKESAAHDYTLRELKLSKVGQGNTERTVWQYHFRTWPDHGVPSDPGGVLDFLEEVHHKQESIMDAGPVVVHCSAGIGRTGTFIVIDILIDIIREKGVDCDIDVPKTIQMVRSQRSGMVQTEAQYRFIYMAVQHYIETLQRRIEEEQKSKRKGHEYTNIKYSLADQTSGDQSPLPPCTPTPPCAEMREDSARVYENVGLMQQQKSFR
# assayExplanation: SHP2 biochemical assay (DiFMUP substrate, activating peptide IRSI_2pY)
# conditionNotes: DiFMUP substrate, activating peptide IRSI_2pY, 60 min at RT; read-out: SHP-2 Biochemical assay IC50
pIC50: −log10 of the molar value.
Collected pIC50 values appear next to each entry.
measureName: pIC50

| molecule | measValue |
| --- | --- |
| Cc1nc(NC2CCC(CN)C2)nc(C(N)=O)c1-c1cccc(Cl)c1Cl (stereo not shown) [Compound 36] | 4.89 |
| NC(=O)c1nc(N2CC3CCCC(C2)C3N)nc(N)c1-c1cccc(Cl)c1Cl (stereo not shown) [Compound 6] | 5.57 |
| CN(c1nc(N)c(-c2cccc(Cl)c2Cl)c(C(N)=O)n1)[C@H]1CC[C@H](N)CC1 [Compound 112] | 7.18 |
| NC[C@]12CCC[C@H]1CN(c1nc(N)c(-c3cccc(Cl)c3Cl)c(C(N)=O)n1)C2 (single isomer, unassigned) [Compound 105] | 5.00 |
| Cc1nc(NC2CCCC2CN)nc(C(N)=O)c1-c1cccc(Cl)c1Cl (stereo not shown) [Compound 43] | 5.51 |
| CCCC1(N)CCN(c2nc(N)c(-c3cccc(Cl)c3Cl)c(C(N)=O)n2)CC1 [Compound 53] | 6.70 |
| C[C@]1(N)CCCN(c2nc(N)c(-c3cccc(Cl)c3Cl)c(C(N)=O)n2)CC1 (atropisomer, axis not shown; (P)) [Compound 108] | 5.89 |

====

# systemName: Full length SHP2 protein (Recombinant Human SHP-2) (Homo sapiens)
# assayExplanation: SHP2 biochemical assay (DiFMUP substrate, activating peptide IRSI_2pY)
# conditionNotes: DiFMUP substrate, activating peptide IRSI_2pY, 60 min at RT; read-out: SHP-2 Biochemical assay IC50
measureName: IC50

| molecule | measValue |
| --- | --- |
| Cc1nc(N[C@@H]2CCC[C@H](N)C2)nc(C(N)=O)c1-c1cccc(Cl)c1Cl (atropisomer, axis not shown; (M)) [Compound 88] | 410 nM |
| NC(=O)c1nc(N2CCC3(CC2)Cc2ccccc2[C@H]3N)nc(N)c1-c1cccc(Cl)c1Cl (single isomer, unassigned) [Compound 118] | 41 nM |
| Cc1nc(N2CCC(C)(N)CC2)nc(C(N)=O)c1-c1cccc(Cl)c1Cl [Compound 18] | 104 nM |
| Cc1nc(N2CCC3(CC2)CO[C@@H](C)[C@H]3N)nc(C(N)=O)c1-c1cccc(Cl)c1Cl (single isomer, unassigned) [Compound 94] | 2600 nM |
| Cc1nc(N2C[C@H]3CCC(N)[C@@H]3C2)nc(C(N)=O)c1-c1cccc(Cl)c1Cl (some centres unmarked) [Compound 73] | 5200 nM |
| NC[C@@]12CCC[C@@H]1CN(c1nc(N)c(-c3cccc(Cl)c3Cl)c(C(N)=O)n1)C2 (atropisomer, axis not shown; (P)) [Compound 98] | 49 nM |
| NCC1CN(c2nc(N)c(-c3cccc(Cl)c3Cl)c(C(N)=O)n2)CC12CCOCC2 (centres unmarked) [Compound 23] | 4700 nM |
| NCC1CC2(CCN(c3nc(N)c(-c4cccc(Cl)c4Cl)c(C(N)=O)n3)CC2)CO1 (centres unmarked) [Compound 40] | 3900 nM |
| Cc1nc(N2CCC3(CC2)CO[C@@H](C)[C@H]3N)nc(C(N)=O)c1-c1cccc(Cl)c1Cl (single isomer, unassigned) [Compound 95] | 22 nM |
| NC(=O)c1nc(N2CC(N)C2)nc(N)c1-c1cccc(Cl)c1Cl [Compound 69] | 5600 nM |
| Cc1nc(N2CCOC[C@H]2CN)nc(C(N)=O)c1-c1cccc(Cl)c1Cl (atropisomer, axis not shown; (P)) [Compound 47] | > 10000 nM |
| NC(=O)c1nc(N2CCC3(CCC[C@H]3N)CC2)nc(N)c1-c1cccc(Cl)c1Cl [Compound 7] | 120 nM |
| CC1(CN)CCN(c2nc(N)c(-c3cccc(Cl)c3Cl)c(C(N)=O)n2)CC1 [Compound 41] | 310 nM |
| Cc1nc(N2CCC3(CC2)Oc2ncccc2[C@@H]3N)nc(C(N)=O)c1-c1cccc(Cl)c1Cl [Compound 127] | > 10000 nM |
| Cc1nc(N2C[C@@H](N)[C@@H](O)C2)nc(C(N)=O)c1-c1cccc(Cl)c1Cl [Compound 80] | 5300 nM |
| CC1(N)CCN(c2nc(N)c(-c3cccc(Cl)c3)c(C(N)=O)n2)CC1 [Compound 2] | 2100 nM |
| NC[C@]12CCC[C@H]1CN(c1nc(N)c(-c3cccc(Cl)c3Cl)c(C(N)=O)n1)C2 (single isomer, unassigned) [Compound 104] | 120 nM |
| NCC12CCCCC1CN(c1nc(N)c(-c3cccc(Cl)c3Cl)c(C(N)=O)n1)C2 (centres unmarked) [Compound 24] | 270 nM |
| NC(=O)c1nc(N2CCC3(CC2)Cc2scnc2[C@H]3N)nc(N)c1-c1cccc(Cl)c1Cl [Compound 121] | 2 nM |
| NC[C@@]12CCCC[C@@H]1CN(c1nc(N)c(-c3cccc(Cl)c3Cl)c(C(N)=O)n1)C2 (single isomer, unassigned) [Compound 102] | 17000 nM |
| Cc1nc(N2C[C@H]3CC[C@@H](N)[C@H]3C2)nc(C(N)=O)c1-c1cccc(Cl)c1Cl [Compound 72] | 6700 nM |
| CNC(=O)c1nc(N2CCC(C)(N)CC2)nc(N)c1-c1cccc(Cl)c1Cl [Compound 9] | 1100 nM |
| Cc1nc(N2CCC3(CCC[C@@H]3N)C2)nc(C(N)=O)c1-c1cccc(Cl)c1Cl (stereo in doubt) [Compound 37] | 1100 nM |
| Cc1nc(N2CC(F)(CN)C2)nc(C(N)=O)c1-c1cccc(Cl)c1Cl [Compound 44] | 11000 nM |
| NC(=O)c1nc(N[C@@H]2CCNC[C@@H]2F)nc(N)c1-c1cccc(Cl)c1Cl (atropisomer, axis not shown; (M)) [Compound 64] | 10000 nM |
| Cc1nc(N2CCC3(CC2)CO[C@@H](C)[C@H]3N)nc(C(N)=O)c1-c1cccc(Cl)c1Cl [Compound 85] | 48 nM |
| Cc1nc(N(C)C2CCC(N)CC2)nc(C(N)=O)c1-c1cccc(Cl)c1Cl (centres unmarked) [Compound 32] | 200 nM |
| Cc1nc(N2CCC(C)(N)CC2)nc(C(N)=O)c1-c1ccc(F)cc1Cl [Compound 82] | 2000 nM |
| NC(=O)c1nc(NC2CCOC3(C2)CN2CCC3CC2)nc(N)c1-c1cccc(Cl)c1Cl (centres unmarked) [Compound 52] | > 10000 nM |

Data origin, for the record: patent US11033547B2
